Assay: qHTS of pediatric cancer cell lines to identify multiple opportunities for drug repurposing: Primary screen for SJ-GBM2 cells (AID 1347091); also: potency is read from the fitted curve at half-maximal effect
Conditions: SJ-GBM2 viability, CellTiter-Glo luminescence, 48 h; series mostly up to 46 µM
Method: Drug repurposing or repositioning has been offered as a strategy for drug development in oncology programs. […] [1] Shen, M et al. Quantitative high-throughput phenotypic screening of pediatric cancer cell lines identifies multiple opportunities for drug repurposing. […] Cells were assayed in growth media at a density of 500-1,000 cells/well. […] After a 15 min incubation at room temperature, samples were analyzed for luminescence intensity using a ViewLux High-throughput CCD imager equipped with clear filters.
Inconclusive results are not listed. Activity calls are given as the source filed them. Calls follow the shape of the dose curve; as a rule, active = well fitted cell-killing curve with a large enough effect; inconclusive = small, poorly fitted or top-dose-only effect; inactive = no such curve, though single readings can be large or run the other way.
quantity measured: Potency

record smiles	quantity measured	measured
CN1CCN(CCCN2c3ccccc3Sc3ccc(C(F)(F)F)cc32)CC1	Potency	18.7 µM (active)
NC(=O)c1ccc(-c2nc(-c3ccc4c(c3)OCCO4)c(-c3ccccn3)[nH]2)cc1	Potency	inactive
OCCC#Cc1nc(-c2ccc(F)cc2)c(-c2ccncc2)n1CCCc1ccccc1	Potency	23.5 µM (active)
Cc1cnc(NC(=O)C2=C(O)c3ccccc3S(=O)(=O)N2C)s1	Potency	inactive

// next entry
Ask: Output measured Potency for this item: `Oc1cccc(-c2nc(N3CCOCC3)c3oc4ncccc4c3n2)c1`
Reply: 0.0855 µM (active)

----------
Target: Cytochrome P450 2D6 (Homo sapiens) (UniProt P10635)
Sequence (P10635 whole entry, looked up): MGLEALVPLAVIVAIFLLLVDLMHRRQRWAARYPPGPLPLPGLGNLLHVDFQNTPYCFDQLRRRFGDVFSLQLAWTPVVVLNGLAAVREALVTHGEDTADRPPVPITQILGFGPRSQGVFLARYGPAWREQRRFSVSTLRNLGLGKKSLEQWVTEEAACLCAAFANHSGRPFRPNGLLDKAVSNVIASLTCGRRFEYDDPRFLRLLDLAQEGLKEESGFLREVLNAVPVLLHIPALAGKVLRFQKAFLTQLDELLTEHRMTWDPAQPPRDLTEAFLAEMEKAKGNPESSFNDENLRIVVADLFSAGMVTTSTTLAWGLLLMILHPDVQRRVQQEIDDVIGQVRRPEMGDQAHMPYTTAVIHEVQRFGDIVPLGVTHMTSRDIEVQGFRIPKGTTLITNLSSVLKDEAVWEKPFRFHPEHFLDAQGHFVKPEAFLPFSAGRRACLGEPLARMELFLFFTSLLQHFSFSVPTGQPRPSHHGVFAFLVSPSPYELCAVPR
Assay: Cytochrome P450 family 2 subfamily D member 6 (CYP2D6) small molecule antagonists: luciferase biochemical (cell-free) qHTS assay (AID 1645840); also: nearly all actives have a fitted effect of over 55% in size
Conditions: P450-Glo CYP2D6 enzyme, luciferin luminescence, 1 h; series mostly up to 57.4 µM
Records with an inconclusive call do not appear. Active and inactive are the calls of the source. The call rests on the fitted dose curve; in most records, active means well fitted inhibition curve with a large enough effect in the repeat runs; inconclusive means weak or mixed curves; inactive means flat fitted curve, though single readings scatter.
Tick one outcome: active, inactive

These recorded examples may help you get a feel for the data.
molecule	label class
Cn1cnc([N+](=O)[O-])c1Sc1ncnc2nc[nH]c12	inactive
NNCCc1ccccc1	active
O=c1[nH]c(-c2ccc(C(F)(F)F)cc2)nc2c1CSCC2	inactive
C#Cc1cccc(Nc2ncnc3cc(OCCOC)c(OCCOC)cc23)c1	inactive

Continue with the molecule presented below.
Ask: Query: recorded result category for `CCOC(=O)C1=C[C@]2(CC)CCCN3CCc4c(n1c1ccccc41)[C@@H]32` in this test
Reply: active

----------
Experiment: Quantitative High-Throughput drug screen in 47 multiple myeloma cell lines against the NCATS MIPE library collection: L363_DSMZ cell viability assay (AID 1918984); also: nearly all actives have a fitted effect of over 40% in size
Conditions: L363 myeloma viability, CellTiter-Glo ATP luminescence, 48 h; series mostly up to 45.8 µM
Records with an inconclusive call do not appear. Calls of active or inactive are those of the source. Calls come from the whole dose curve; as a rule, active = well fitted cell-killing curve with a large enough effect; inconclusive = small, poorly fitted or top-dose-only effect, or effect the other way; inactive = no such curve, though single readings can be large or run the other way.
Allowed answers: active, inactive

Worked examples follow.
molecule	label class
COc1cc2nccc(Oc3ccc(NC(=O)NC4CC4)c(Cl)c3)c2cc1C(N)=O	inactive
Cc1ccccc1C(OCCN(C)C)c1ccccc1 (stereo not given)	inactive
CCn1cc(C(=O)O)c(=O)c2cc(F)c(N3CCNC(C)C3)c(F)c21 (stereo not given)	inactive
O=C(O)COCCN1CCN(C(c2ccccc2)c2ccc(Cl)cc2)CC1 (stereo not given)	active
CS(=O)(=O)Oc1ccc2c(NC(N)=O)c(C(=O)c3ccc(Cl)cc3Cl)oc2c1	active
CCOc1cc(N2CCC(O)CC2)ccc1Nc1ncc2c(n1)N(C)c1ccccc1C(=O)N2C	active
O=c1[nH]c(-c2ccc(C(F)(F)F)cc2)nc2c1CSCC2	inactive
Cc1c(CN2CCN(C(=O)C(C)C)CC2)sc2c(N3CCOCC3)nc(-c3cnc(N)nc3)nc12	active

Ask: Which outcome was entered for the molecule `CCn1c(-c2nonc2N)nc2cnc(Oc3cccc(NC(=O)c4ccc(OCCN5CCOCC5)cc4)c3)cc21` in this test?
Reply: active

Ask: Record lookup: outcome of this test for `Cc1cn[nH]c1` ?
Reply: active

----------
Tested on: Zika virus NS2B-NS3 protease (unlinked)
Assay: Optimization of GU AMC qHTS for Zika virus inhibitors: Unlinked NS2B-NS3 protease assay (AID 1347151); also: nearly all actives have a fitted effect of over 80% in size; also: potency is read from the fitted curve at half-maximal effect
Settings: recombinant ZIKV NS2B-NS3 protease, fluorogenic AMC substrate; series mostly up to 52.5 µM
Inconclusive results are not listed. Active and inactive are the calls of the source. The call rests on the fitted dose curve; in most records, active means well fitted inhibition curve with a large enough effect; inconclusive means small, poorly fitted or top-dose-only effect; inactive means no such curve, though single readings can be large or run the other way.
quantity measured: Potency

Worked examples, 5 molecules total:
molecule	measured
CC(=O)Oc1ccccc1C(=O)O	26.7 µM (active)
Cc1cccc(-c2[nH]c(C(C)(C)C)nc2-c2ccc3nccnc3c2)n1	inactive
CCOC(=O)N1CCC(=C2c3ccc(Cl)cc3CCc3cccnc32)CC1	inactive
O=C(O)COCCN1CCN(C(c2ccccc2)c2ccc(Cl)cc2)CC1 (stereo unspecified)	inactive
Nc1nc2ccc(OC(F)(F)F)cc2s1	inactive

Kindly review the next molecule as well.
Ask: Give Potency for `Cn1cnc([N+](=O)[O-])c1Sc1ncnc2nc[nH]c12` tested on Zika virus NS2B-NS3 protease (unlinked).
Reply: inactive

----------
Tested on: PC26
Assay: qHTS profiling for inhibitors of Plasmodium falciparum proliferation (AID 504749); also: nearly all actives have a fitted effect of over 60% in size
Settings: P. falciparum in erythrocytes, SYBR Green DNA, 72 h; series mostly up to 28.7 µM
Results filed as inconclusive are left out. The source made the active and inactive calls. The call rests on the fitted dose curve; in most records, active means well fitted inhibition curve with a large enough effect; inconclusive means small, poorly fitted or top-dose-only effect; inactive means flat fitted curve, though single readings scatter.
Write down the outcome that applies. Available outcomes: active, inactive

molecule	label class
Nc1nc2c(ncn2COCCO)c(=O)[nH]1	inactive

Ask: Answer briefly: the call reported for CCc1ccc(CCOc2ccc(CC3SC(=O)NC3=O)cc2)nc1 (stereo unspecified) in this assay.
Reply: inactive

Ask: Could you please tell me the result logged for `NC(=O)c1cnccn1` in this assay?
Reply: inactive

Ask: Returns: the outcome recorded for `CCOC(=O)C1=C[C@@]2(CC)CCCN3CCc4c(n1c1ccccc41)[C@H]32` in this assay.
Reply: active

Ask: State the result this test recorded for `Cc1[nH]c(=O)c(C#N)cc1-c1ccncc1` .
Reply: inactive

Ask: Fill in: this test's call for OC(CN1CCC(Cc2ccc(F)cc2)CC1)c1ccc(Cl)cc1 (stereo unspecified) is ___
Reply: active

----------
Experiment: Cell Proliferation Assay against the TMD8 Cell Line (Caspase readout at 16 hrs) (AID 651712); also: potency is read from the fitted curve at half-maximal effect
Settings: TMD8 lymphoma cells, caspase activation luminescence; series mostly up to 46.1 µM
Records with an inconclusive call do not appear. The source made the active and inactive calls. The call rests on the fitted dose curve; in most records, active means well fitted activation curve with a large enough effect; inconclusive means small, poorly fitted or top-dose-only effect; inactive means flat fitted curve, though single readings scatter.
quantity measured: Potency

These solved cases illustrate the format of a correct answer.
compound	quantity measured	measured
CCOc1cc(N2CCC(O)CC2)ccc1Nc1ncc2c(n1)N(C)c1ccccc1C(=O)N2C	Potency	20.9 µM (active)
COc1ccc2nc(S(=O)Cc3ncc(C)c(OC)c3C)[nH]c2c1 (stereo not given)	Potency	inactive
Cn1cc(-c2ccc3nnc(C(F)(F)c4ccc5ncccc5c4)n3n2)cn1	Potency	inactive
CC(C)C[C@H](NC(=O)[C@@H](O)[C@H](N)Cc1ccccc1)C(=O)O	Potency	inactive

Moving on to the next compound.
Ask: Look up Potency of `Cc1cnc(Nc2ccc(OCCN3CCCC3)cc2)nc1Nc1cccc(S(=O)(=O)NC(C)(C)C)c1` and report it.
Reply: inactive

----------
Experiment: Cell Proliferation Assay Versus the ED40515 IL2 Independent ATL cell lines (AID 1053194)
Conditions: ED40515 IL2-independent ATL cells
Activity calls are given as the source filed them. Calls come from the whole dose curve.
The following compounds are listed with their measured Potency values.

Below are worked cases with known answers.
compound	measured
COc1cc(Oc2ccnc3cc(OC)c(OC)cc23)ccc1NC(=O)NC(C)c1nccs1 (stereo not given)	9.35 µM (active)
Nc1nccc(-c2ccc3noc(-c4ccc(Cl)cc4)c3c2)n1	18.7 µM (active)
COc1ccc2nc(S(=O)Cc3ncc(C)c(OC)c3C)[nH]c2c1 (stereo not given)	1.05 µM (active)
Cc1ccc(NC(=O)c2cccc(C(C)(C)C#N)c2)cc1Nc1ccc2ncn(C)c(=O)c2c1	26.4 µM (active)
Cc1ccnc(NS(=O)(=O)c2ccc(NC(=O)Nc3ccc(S(=O)(=O)Nc4nccc(C)n4)cc3)cc2)n1	6.62 µM (active)

Ask: Please list Potency recorded for the compound OC(CN1CCC(Cc2ccc(F)cc2)CC1)c1ccc(Cl)cc1 (stereo not given)
Reply: 26.4 µM (active)

Ask: Determine from records and report Potency for `CCCc1nc2c(C)cc(-c3nc4ccccc4n3C)cc2n1Cc1ccc(-c2ccccc2C(=O)O)cc1`
Reply: 37.2 µM (active)

Ask: Name the recorded Potency of the compound listed here: `CC(C)C[C@H](NC(=O)[C@@H](O)[C@H](N)Cc1ccccc1)C(=O)O`
Reply: 6.62 µM (active)

Ask: Look up Potency of Cc1c(C)c2c(c(C)c1O)CCC(C)(COc1ccc(CC3SC(=O)NC3=O)cc1)O2 (stereo not given) and report it.
Reply: 37.2 µM (active)

Ask: Give the reported Potency for this compound. `COc1ccc(-c2c(-c3ccc(O)cc3O)n[nH]c2C)cc1`
Reply: 23.5 µM (active)

----------
Experiment: Quantitative High-Throughput drug screen in 47 multiple myeloma cell lines against the NCATS MIPE library collection: OPM2_DSMZ cell viability assay (AID 1919872); also: nearly all actives have a fitted effect of over 30% in size
Conditions: OPM2 myeloma viability, CellTiter-Glo ATP luminescence, 48 h; series mostly up to 45.8 µM
Records with an inconclusive call do not appear. Calls of active or inactive are those of the source. The call rests on the fitted dose curve; in most records, active means well fitted cell-killing curve with a large enough effect; inconclusive means small, poorly fitted or top-dose-only effect, or effect the other way; inactive means no such curve, though single readings can be large or run the other way.
Respond only with the outcome that fits, drawn from active, inactive

Reference set, count: 4
compound	label class
CS(=O)(=O)Oc1ccc2c(NC(N)=O)c(C(=O)c3ccc(Cl)cc3Cl)oc2c1	inactive
Fc1ccc(Cl)cc1-c1nc(Nc2ccncc2)c2nccnc2n1	inactive
N#CC[C@H](C1CCCC1)n1cc(-c2ncnc3[nH]ccc23)cn1	inactive
CO[C@@H]1[C@H](N(C)C(=O)c2ccccc2)C[C@H]2O[C@]1(C)n1c3ccccc3c3c4c(c5c6ccccc6n2c5c31)C(=O)NC4	active

# input for lookup
Ask: Status in this test for CCc1ccc(CCOc2ccc(CC3SC(=O)NC3=O)cc2)nc1 (stereo not given) ?
Reply: inactive
